Experiment: soluble on expression in E. coli; label from the status in PepcDB or PDB records

[
  {
    "Chain Sequence": "MGSDKIHHHHHHMDAMPSTTAITVSQLSRLVGLPGVPVIIDVRIDEDFDADPRLLPASIRRDFKTVSTWAPDFAGKPVVVVCQKGLKLSQGVAAWLRHEGIPAESLEGGFEAWREADGLLVSTDKLPPRDEKGRTVWVTRSRPKVDRIACPWLIRRFVDPRAVFLFVEAAEVPAVADRFQAVPFDIDNVFWSHRGERCTFDTMIEEFGLESTALDRLAAIVRAADTARLDLVPQAAGFLAASLGLSRMFRDDLEQLEAGMLLYDAFFRWCRDATEETHNWPSAGKPS",
    "soluble on expression in E. coli": "not soluble"
  },
  {
    "Chain Sequence": "MPSYKLSYFPVRGLAESARLLFHLAGVPFEDERVNFLDDTWEKMKGKTPMGQLPVLTVDDFEIPQSAAINRYLARKFGFAGKTPEEEAWVDAVVDQFKDFFAEFRKLVIAKRVGKSAEELEKLTAEVIKPAMDVYFKVLNGLLEKSKSGYLIGDSITFADLYIADNIQTLKKYGLLEASGEQPKLAAHLEKVYSHPNLKSYIASRPVTEI",
    "soluble on expression in E. coli": "not soluble"
  },
  {
    "Chain Sequence": "MSPKSVVITGANRGIGLGLVQEFVKDKNIRHIIATARDVEKATDLKAISDPRVTALQLEVTCDKSMDTFVSKVEEIVGSDGLNLLVNNAGNAVDYPCKAKPNRALFAEQLNVNTTSVVILTQKLMPLLIKASSKVSGDQLSASRAAVVTISSGLASMTDFATGGHAPNAFAYRISKAAINMFGRALANDMKDDHILVASIGPGWVKTDMGGEKALLTVEQSTAELVASFNKLNNSHNGGFFQKDLTPYPF",
    "soluble on expression in E. coli": "not soluble"
  }
]

###

Assay: soluble on expression in E. coli; label from the status in PepcDB or PDB records

[
  {
    "Chain Sequence": "AHHHHHHGSEIDKGLAKFGDSLINFLYSLALTEFLGKPTGDRVPNASLAIALELTGLSKNLRRVDKHAKGDYAEALIAKAWLMGLISEREAVEIIKKNLYPEVLDFSKKKEAIGRALAPLLVIISERLYSSQV",
    "soluble on expression in E. coli": "soluble"
  },
  {
    "Chain Sequence": "MSDILKCIGCGAPLQSEDKNKPGFVPEHNMFRDDVICRRCFRLKNYNEVQDVGLESEDFLKLLSGLADKKGIVVNVVDVFDFEGSFINAVKRIVGNKKIILAANKLDLLPKQINKRRVKEWLKRTARKYGLEADDVVLISAEKGWGIDDLLSSIANIRENEDVYIVGTTNVGKSTLINKLIEASVGEKDVVTTSRFPGTTLDMIDIPLDESSFMYDTPGIIQDHQMTHLVSEKELKIIMPKKEIKQRVYQLNEAQTLFFGGLARIDYVSGGKRPLVCFFSNDLNIHRTKTEKANDLWRNQLGDLLTPPGNPQNFDLNELKAVRLETGKEKRDVMISGLGFITIGPGAKVIVRVPKNVDVVLRNSILLEHHHHHH",
    "soluble on expression in E. coli": "soluble"
  }
]

###

Assay: soluble on expression in E. coli; label from the status in PepcDB or PDB records
Measured Quantity: soluble on expression in E. coli

[
  {
    "Chain Sequence": "MERRLIFGTIASKMSLAPEADLDSLIIRNDSLSGAVIAAIMQEAGLRAVRKNRYVILQSDLEEAYATQVKTDNTVDKFDFYK",
    "Measured Quantity": "soluble on expression in E. coli",
    "Test Value": "soluble"
  },
  {
    "Chain Sequence": "GSHSMKYFYTSMSRPGRGQPRFIAVGYVDDTQFVRFDSDAASQRMEPRAPWVEQEGPEYWDRETRNMKTETQNAPVNLRTLLRYYNQSEAGSHTLQRMVGCDLGPDGRLLRGYEQYAYDGKDYIALNEDLRSWTAADVAAQNTQRKWEAADVAESMRAYLEGQCVEWLPRYLEKGKETLQRTDPPKTHVTHHPVSDHEATLRCWALGFYPAEITLTWQRDGEDQTQDTELVETRPAGDGTFQKWAAVVVPSGEEQRYTCHVQHEGLPKPHTLKWEPHH",
    "Measured Quantity": "soluble on expression in E. coli",
    "Test Value": "soluble"
  },
  {
    "Chain Sequence": "AQSVPWGISRVQAPAAHNRGLTGSGVKVAVLDTGISTHPDLNIRGGASFVPGEPSTQDGNGHGTHVAGTIAALNNSIGVLGVAPNAELYAVKVLGASGSGSVSSIAQGLEWAGNNGMHVANLSLGSPSPSATLEQAVNSATSRGVLVVAASGNSGAGSISYPARYANAMAVGATDQNNNRASFSQYGAGLDIVAPGVNVQSTYPGSTYASLNGTSMATPHVAGAAALVKQKNPSWSNVQIRNHLKNTATSLGSTNLYGSGLVNAEAATR",
    "Measured Quantity": "soluble on expression in E. coli",
    "Test Value": "soluble"
  }
]

###

Experiment: soluble on expression in E. coli; label from the status in PepcDB or PDB records
Measured Quantity: soluble on expression in E. coli

[
  {
    "Chain Sequence": "MNRTDELRTARIESLVTPAELALRYPVTPGVATHVTDSRRRIEKILNGEDKRLLVIIGPCSIHDLTAAMEYATRLQSLRNQYQSRLEIVMRTYFEKPRTVVGWKGLISDPDLNGSYRVNHGLELARKLLLQVNELGVPTATEFLDMVTGQFIADLISWGAIGARTTESQIHREMASALSCPVGFKNGTDGNTRIAVDAIRAARASHMFLSPDKNGQMTIYQTSGNPYGHIIMRGGKKPNYHADDIAAACDTLHEFDLPEHLVVDFSHGNCQKQHRRQLEVCEDICQQIRNGSTAIAGIMAESFLREGTQKIVGSQPLTYGQSITDPCLGWEDTERLVEKLASAVDTRF",
    "Test Value": "soluble"
  },
  {
    "Chain Sequence": "MTEHPRAHTAHLRTARLELTPLDPAADARHLHHAYGDEEVMRWWTRPACADPAETERYLTSCAAAPGARLWTIRAPDGTVPGMAGLLGGTDVPGLTWLLRRDSWGHGYATEAAAAVVGHALEDGGLDRVEAWIEAGNRRSLAVAARVGLTERARLAQHYPHRPGPHEMVVLGKARAEEPLTTLAVITELPVRDVAATLRLVEAALGARTAFAIGDPPEFAEAALTPWSAGPRFRLAAVPGPGPVEPVRLHLDAAGTADSLHRRAVDAGARVDGPPVRRPWGRSEFVITLPEGHELTVSAPV",
    "Test Value": "soluble"
  },
  {
    "Chain Sequence": "MGSDKIHHHHHHMSAVTESVLESIISPVTMSEFLEEYWPVKPLVARGEVERFTSIPGFEKVRTLENVLAIYNNPVMVVGDAVIEESEGITDRFLVSPAEALEWYEKGAALEFDFTDLFIPQVRRWIEKLKAELRLPAGTSSKAIVYAAKNGGGFKAHFDAYTNLIFQIQGEKTWKLAKNENVSNPMQHYDLSEAPYYPDDLQSYWKGDPPKEDLPDAEIVNLTPGTMLYLPRGLWHSTKSDQATLALNITFGQPAWLDLMLAALRKKLISDNRFRELAVNHQSLHESSKSELNGYLESLIQTLSENAETLTPEQIFQSQDSDFDPYQSTQLVFRQLLTSYKF",
    "Test Value": "soluble"
  },
  {
    "Chain Sequence": "MSAAVQKRASTNTVAATTYFKPAPSEIAWGKMRFLITDRPNNSSIQSYIEELEKHGARAVVRVCEPTYDTLALKEAGIDVLDWQFSDGSPPPPEVIKSWFQLCMTSFKEHPDKSIAVHCVAGLGRAPVLVAIALIEAGMKYEDAVEMIRTQRRGALNQKQLKFLETYKANGELRRLRGNVDGKQKSCCIQ",
    "Test Value": "not soluble"
  },
  {
    "Chain Sequence": "MRMRLMLLGGGNALGQALIRLGAEEDIGFLAPRPPQDGWDVASLTQLLDDTRPDALINLAYYFDWFQAETVSAARLTHQERSVERLAELCQHHNITLVQPSSYRVFDGSRATAYSEKDEPVPLGLRGQALWRIEQSVRATCPQHVLVRFGWLLDDSADGVLGRFLSRAKEPGELLLADDRRGNPTPVDDAARVIISIVKQLDCEAPLWGTYHYAGHEATTPLALGQAVLTEARLLHPLAIESPTAQAHAARPDAAEEPQHAVLACKKILHTFGIKPRAWRAGLPSLLDRYYRHV",
    "Test Value": "not soluble"
  },
  {
    "Chain Sequence": "MTLYIGMNNTSGKAITDIDHLRQSVRDILLTPQGSRIARREYGSLLSALIDQPQNPALRLQVMSAVYVALSRWEPRLTLDSITINSHFDGSMVVELAGRRNNGVPVSLSVSTGAENGSD",
    "Test Value": "not soluble"
  },
  {
    "Chain Sequence": "MTEKLKNSKEVIAYIAECFPKCFTLEGEAKPLKIGIFQDLAERLNEDEKVSKTQLRAALRQYTSSWRYLHGVKPGAVRVDLDGNPCGELEEEHVEHAKATLAESKAKVQARRKEQAQKAREEGKAKAKPAANKKPQQPRRTNKPKVQKPTKPVETRALNADEITVGNAVNVNMGKGNMAATIVEINKDDVRVQLANGLQMVVKAEHLRA",
    "Test Value": "soluble"
  },
  {
    "Chain Sequence": "MSGLEAKIAAIRDPDLQAELEAARGGFLFAPIVEHLLFRQRERDAARAQEGAQAEAREAMGRDRRRRDAVREVIESEPTGPENLQHLHSVLALCGLPYRDPGDARDFVREYGRNSLSLSAGRLKNPITGEMELQGLPYGPKARLVLLHLCTEAVRQRSPTIEVADSLSGFMKAMGFAVTGGERGTIGAFKEQLNRLAACSMQLGLWDGEGQASTLNVPPFRQLELWRRGDDGLVWQRTVSFHQDFYDSLIRHALPVDIRAARAFSGSARKLDLLFWTGYRLRALQRPLRLTWDNLHRQFGAENASLRSFRQAFKADLAGLLEVFPRLRIDLDEGGMLLHPADPGSLLVPPKLEHHHHHH",
    "Test Value": "not soluble"
  },
  {
    "Chain Sequence": "MATAIAITSLLIISGCSSNVETTTVKKETMQSQQKNTETVNTTPQNFYKDITSGKIEHIHGIGYVGNVPWVSIATHSGIKVYQNGKWLETATQLHDYMGFQATKNGFFASGHPEPGANLKNPLGLMKSSDGGNTLEKLAFYGESDFHNLAVGYNTEAIYLYNERPNSKLQQGFYFSTNNGQDWKNSKLKGLSSTVHSFSVHPDQSSVVAVSTKDGVYLSTDYGNTFELFSKSLESTAVTLSNEDVIYAPINTQIVTKKSIATNEETNIQIPLLDSKDAIMYISQNPQNAAEIVFATMKANVFLSTDEGKTWKQLTKEGTLQFN",
    "Test Value": "not soluble"
  },
  {
    "Chain Sequence": "MGSDKIHHHHHHMQQAHNDGVVSAMSQATDARLAAQDLARQLLHPHLGFVLFFCSAEYDLQALGEALEQDFGGIRLVGCTSAGEITPLGYGRNCVTAVGFDHRHFSIATALIDEMERFSLIDAQQMVERLVGTCRSNTLAPIKGHSFALTLLDGLSSREEMVLAALSAALGDIPHFGGSAGDDNYLNRTHVYYGGAFHNGAAVVVLVNTWLDFEVFTTHHILPRQEKLVVTGADSAQRRVFELNAEPAAEEYARHIGVPVAALDHRVFAAHPLAVRIHDQYYVRAIQQMHPDLSLSFYCAVENGIVLTAMTPGPLLPNLHQLFDGLHQRLGPLLLTIGCDCFLRRLELEAHRGLEPVGAFLREQRVIGFNTYGEQFNGMHINQTFTGVAIARNRPPVGR",
    "Test Value": "not soluble"
  }
]

These measurements were taken from the DeepSol protein solubility set.
